Experiment: Animal PK study in mouse via i.v., p.o. and s.c. administration
Format: in vivo
Conditions: plasma, iv, 5 mg/kg, i.v., read-out: PK t1/2 i.v.
property_label: half-life

Solved entries:
{"columns": ["compound", "test_value"],
 "data": [
  ["C[C@H](NC(=O)Nc1ccc2c(c1)CC(c1ccc3c(c1)CNC3)S2(=O)=O)c1ccccc1 (stereo partly shown)", "1.16 h"],
  ["COc1ccc([C@@H](C)NC(=O)Nc2ccc(S(=O)(=O)Cc3ccc4c(c3)CCN(C)C4)cc2)c(Cl)c1Cl", "2.09 h"],
  ["CC(NC(=O)Nc1ccc(S(=O)(=O)Nc2ccc3c(c2)CCN(C)C3)cc1)c1cccc(Cl)c1Cl (stereo not shown)", "1.27 h"],
  ["COc1cc(S(=O)(=O)Cc2ccc3c(c2)CCNC3)ccc1NC(=O)NC(C)c1cccc(Cl)c1Cl.Cl (stereo not shown)", "1.16 h"]
]}

I would be grateful if you could share the reported half-life for COc1cc(S(=O)(=O)Cc2ccc3c(c2)CN(C)C3)ccc1NC(=O)NC(C)c1ccccc1 (stereo not shown) .
0.93 h

I would be grateful if you could share the reported half-life for CC(NC(=O)Nc1ccc(S(=O)(=O)Cc2ccc3c(c2)CN(C)C3)cc1O)c1ccccc1 (stereo not shown) .
1.33 h

I would be grateful if you could share the reported half-life for CC(NC(=O)Nc1ccc(S(=O)(=O)Cc2ccc3c(c2)CNC3)cc1)c1ccc(F)cc1 (stereo not shown) .
0.89 h

---

Molecular target: recombinant human ghrelin receptor (HEK293/GRLN) (Homo sapiens)
Construct: expressed in transfected cells
Test: Ghrelin inverse agonist potency (EC50) with IP-1 (IP-One HTRF) assay
Type: cell-based
Conditions: ghrelin inverse agonist potency, IP-1 assay; read-out: Activity EC50
property_label: EC50 (nM)
Numeric answer only, unit nM assumed.

{"columns": ["molecule", "EC50 [nM]"],
 "data": [
  ["CC(NC(=O)Nc1ccc(C(=O)Nc2ccc3c(c2)CNC3)cc1)c1ccccc1 (centres unmarked)", 1950],
  ["COc1cc(S(=O)(=O)Cc2ccc3c(c2)CC(C)NC3)ccc1NC(=O)N(O)C(C)c1ccccc1 (centres unmarked)", 12.6],
  ["CC(c1ccccc1)N(C)C(=O)Nc1ccc(S(=O)(=O)Cc2ccc3c(c2)CN(C)C3)cc1O (centres unmarked)", 133],
  ["CNC(=O)c1cc(S(=O)(=O)Cc2ccc3c(c2)CNC3)ccc1NC(=O)NC(C)c1ccccc1 (centres unmarked)", 7.1],
  ["COC(=O)c1cc(S(=O)(=O)Cc2ccc3c(c2)CNC3)ccc1NC(=O)NC(C)c1ccccc1 (centres unmarked)", 8.4]
]}

I would be grateful if you could share the reported EC50 for CC(=O)N1C2CC=C(CS(=O)(=O)c3ccc(NC(=O)NC(C)c4cccc(Cl)c4Cl)cc3)C1CC2 (centres unmarked) .
707

I would be grateful if you could share the reported EC50 for COc1cc(S(=O)(=O)Cc2nc3c(s2)CNC3)ccc1NC(=O)N[C@@H](C)c1ccccc1 .
289

---

Measured IC50, listed per entry.
Biological target: GHSR-1a (HEK293/GHSR1a cell line) (Homo sapiens)
Construct: expressed in transfected cells; host or cells: HEK293/GHSR1a cell line
Sequence (Q92847 whole entry): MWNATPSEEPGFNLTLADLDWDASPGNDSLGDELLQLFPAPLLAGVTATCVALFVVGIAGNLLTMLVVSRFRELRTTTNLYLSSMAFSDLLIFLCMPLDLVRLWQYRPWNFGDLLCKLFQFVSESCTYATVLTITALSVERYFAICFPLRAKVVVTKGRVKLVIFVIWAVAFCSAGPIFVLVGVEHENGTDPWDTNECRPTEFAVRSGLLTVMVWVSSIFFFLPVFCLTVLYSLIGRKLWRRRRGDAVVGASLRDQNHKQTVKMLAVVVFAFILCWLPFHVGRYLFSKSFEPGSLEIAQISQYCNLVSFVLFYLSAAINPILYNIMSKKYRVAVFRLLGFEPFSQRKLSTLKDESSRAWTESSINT
Test: Ghrelin antagonist potency (IC50) with calcium FLIPR assay, ghrelin 10 nM
Assay type: cell-based
Details: ghrelin antagonist potency, read-out: Activity IC50
Numeric answer only, unit nM assumed.

{"columns": ["molecule", "readout_unit", "IC50"],
 "data": [
  ["CC(NC(=O)Nc1ccc(S(=O)(=O)Cc2ccc3c(c2)CN(C)C3)cc1CO)c1ccccc1 (stereo not shown)", "nM", 80.6],
  ["Cc1cc(NC(=O)NC(C)c2ccccc2)ccc1S(=O)(=O)Cc1ccc2c(c1)CNC2 (stereo not shown)", "nM", 15.3]
]}

I would be grateful if you could share the reported IC50 for CNC(=O)c1cc(S(=O)(=O)Cc2ccc3c(c2)CNC3)ccc1NC(=O)NC(C)c1ccccc1 (stereo not shown) .
38

I would be grateful if you could share the reported IC50 for CC(NC(=O)Nc1ccc(S(=O)(=O)Cc2ccc3c(c2)C(F)(F)CNC3)cc1)c1cccc(Cl)c1Cl (stereo not shown) .
456

I would be grateful if you could share the reported IC50 for COc1cc(S(=O)(=O)Cc2nc3c(s2)CNC3)ccc1NC(=O)N[C@@H](C)c1ccccc1 .
1150

I would be grateful if you could share the reported IC50 for CC(NC(=O)Nc1ccc(S(=O)(=O)Cc2ccc3c(c2)CNC3)cc1-c1cc[nH]n1)c1ccccc1 (stereo not shown) .
12.1

I would be grateful if you could share the reported IC50 for CC(NC(=O)Nc1ccc(S(=O)(=O)Cc2ccc3c(c2)CNC3)cc1-c1cnn(C)c1)c1ccccc1 (stereo not shown) .
493

I would be grateful if you could share the reported IC50 for CC(NC(=O)Nc1ccc(S(=O)(=O)CC2=CCC3CCC2N3C(C)C)cc1)c1cccc(Cl)c1Cl (stereo not shown) .
16200
